biological target: UniProt P48067; assay: [3H]-(R)-NPTS radioligand binding assay using recombinant hGlyT1 expressing cell membranes; conditions: 0.5 nM [3H]-(R)-NPTS, apparent Ki via Cheng-Prusoff, read-out: [3H]-(R)-NPTS bindung Ki
Counter-ions that a name gives are not always drawn.
We begin with a simple list: items and their reported Ki.

Look over these answered cases.
1) Cc1cc(NCc2ccc(Cl)c(Cl)c2)c2cccc(OCCNS(=O)(=O)C(F)(F)F)c2n1 ... ≤ 100 nM
2) Cc1cc(N[C@@H](c2ccccc2)[C@@H]2CCCCN2)c2cccc(OCCNS(C)(=O)=O)c2n1 [Example 37, dihydrochloride] ... ≤ 100 nM

Query for UniProt P48067: what Ki does the record show for COc1cccc2c(NC(CN3CCCC3)c3ccccc3)cc(C)nc12 (centres unmarked) ?
≤ 10000 nM

Item: COc1cccc2c(NC(CN(C)C)c3ccc(Cl)cc3)cc(C)nc12 (racemic) [Example 68, dihydrochloride]
≤ 10 nM

Item: Cc1cc(NCc2ccc(Cl)c(Cl)c2)c2cccc(Cl)c2n1
≤ 100 nM

###

target: human GlyT1c transporter (Homo sapiens, UniProt P48067); test: [3H]-(R)-NPTS radioligand binding assay using recombinant hGlyT1 expressing cell membranes; conditions: 0.5 nM [3H]-(R)-NPTS, apparent Ki via Cheng-Prusoff, read-out: [3H]-(R)-NPTS bindung Ki
pKi: −log10 of the molar value. Counter-ions that a name gives are not always drawn.
MEASURE: pKi

Look over these answered cases.
1. CN(C)c1cc(NCc2ccc(Cl)cc2Cl)c2ccccc2n1 [Example 96] ... ≥ 6.00
2. Cc1cc(N[C@@H](c2ccccc2)[C@@H]2CCCCN2C)c2ccccc2n1 [Example 61, dihydrochloride] ... ≥ 5.00

Moving on to another compound below.
Report pKi for COc1cccc2c(NC(CN(C)C)c3ccccc3)cc(C)nc12 (stereo not drawn) [Example 71] please.
≥ 7.00

###

target: Human GlyT1c (Homo sapiens, UniProt P48067); experiment: Glycine uptake in recombinant hGlyT1 expressing cells; conditions: hGlyT1c_5_CHO cells; [3H]-glycine uptake, 60-120 min
pIC50: −log10 of the molar value.
We begin with a simple list: items and their reported pIC50.

Look over these answered cases.
1. Cc1cc(NCc2ccc(Cl)c(Cl)c2)c2cccc(C)c2n1 ... ≥ 7.00
2. Cc1cc(NCc2ccc(Cl)cc2Cl)c2cccc(OCCNS(C)(=O)=O)c2n1 ... ≥ 6.00
3. CSc1cccc2c(NCc3ccc(F)c(F)c3)cc(C)nc12 ... ≥ 6.00
4. COc1cccc2c(N[C@H](C)c3ccc(Cl)cc3)cc(C)nc12 ... ≥ 6.00
5. C=CCN1CCCC[C@H]1[C@@H](Nc1cc(C)nc2c(OC)cccc12)c1ccccc1 ... ≥ 4.00
6. Cc1cc(NCc2ccc(Cl)cc2Cl)c2cccc(OCCNS(=O)(=O)CC(C)C)c2n1 ... ≥ 6.00

Moving on to another molecule below.
Report pIC50 for Cc1cc(NCc2ccc(Cl)c(Cl)c2)c2cccc(Cl)c2n1 please.
≥ 6.00

###

target: Human GlyT1c (Homo sapiens); assay: Glycine uptake in recombinant hGlyT1 expressing cells; conditions: hGlyT1c_5_CHO cells; [3H]-glycine uptake, 60-120 min
Counter-ions that a name gives are not always drawn.
MEASURE: IC50

Look over these answered cases.
1. Cc1cc(NCc2ccc(Cl)c(Cl)c2)c2cccc(S(=O)(=O)Nc3ccc(Cl)cc3)c2n1 ... ≤ 100 µM
2. Cc1cc(NCc2ccc(Cl)c(Cl)c2)c2cccc(OCCNS(=O)(=O)C(F)(F)F)c2n1 ... ≤ 0.1 µM
3. Cc1cc(NCc2ccc(F)c(F)c2)c2cccc(C)c2n1 ... ≤ 1 µM
4. Cc1cc(NCc2ccc(Cl)c(Cl)c2)c2cccc(OC(C)C)c2n1 [Example 42, hydrochloride] ... ≤ 0.1 µM
5. COCCOc1cccc2c(NCc3ccc(Cl)c(Cl)c3)cc(C)nc12 ... ≤ 0.1 µM
6. CN(C)c1cc(NCc2ccc(Cl)cc2Cl)c2ccccc2n1 ... ≤ 10 µM

Report IC50 for COc1cccc2c(NC(CN3CCCC3)c3ccccc3)cc(C)nc12 (centres unmarked) please.
≤ 10 µM

Item: CN(C)c1cc(NCc2ccc(Cl)c(Cl)c2)c2ccccc2n1
≤ 0.1 µM

###

Target: Human GlyT1c (Homo sapiens)
Construct: expressed in transfected cells; host or cells: CHO (hGlyT1c_5_CHO clone)
Sequence (P48067 1-706): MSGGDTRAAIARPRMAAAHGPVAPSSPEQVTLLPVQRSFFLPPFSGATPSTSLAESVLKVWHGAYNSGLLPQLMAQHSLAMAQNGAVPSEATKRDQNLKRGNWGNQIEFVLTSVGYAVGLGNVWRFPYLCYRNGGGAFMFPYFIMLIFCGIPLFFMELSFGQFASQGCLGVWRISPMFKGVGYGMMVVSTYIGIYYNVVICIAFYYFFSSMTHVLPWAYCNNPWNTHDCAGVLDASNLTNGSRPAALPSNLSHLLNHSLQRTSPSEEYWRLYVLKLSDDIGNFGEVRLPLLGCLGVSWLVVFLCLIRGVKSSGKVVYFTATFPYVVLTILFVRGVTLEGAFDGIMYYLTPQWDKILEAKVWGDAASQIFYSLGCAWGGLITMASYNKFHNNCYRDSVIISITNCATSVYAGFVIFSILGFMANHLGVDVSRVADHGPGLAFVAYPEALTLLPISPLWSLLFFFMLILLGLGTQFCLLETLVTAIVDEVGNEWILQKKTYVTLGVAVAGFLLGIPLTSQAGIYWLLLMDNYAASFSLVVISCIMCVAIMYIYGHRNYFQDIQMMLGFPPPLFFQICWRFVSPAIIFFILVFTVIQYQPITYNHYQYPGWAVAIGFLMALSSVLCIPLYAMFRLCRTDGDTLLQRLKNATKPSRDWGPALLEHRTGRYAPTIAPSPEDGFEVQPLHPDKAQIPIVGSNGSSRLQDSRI
Assay: Glycine uptake in recombinant hGlyT1 expressing cells
Format: cell-based
Details: hGlyT1c_5_CHO cells; [3H]-glycine uptake, 60-120 min
Structures can show the parent of a compound that is named as a salt.
MEASURE: IC50

1. Cc1cc(NCc2ccc(Cl)c(Cl)c2)c2cccc(OCCN3CCCC3)c2n1 ... ≤ 1 µM
2. Cc1cc(NCc2ccc(Cl)c(Cl)c2)c2cccc(OCCNS(=O)(=O)c3ccc4ccccc4c3)c2n1 ... ≤ 1 µM
3. COc1cccc2c(NC(c3ccc(Cl)cc3)C3CC3)cc(C)nc12 (stereo not drawn) ... ≤ 10 µM

Query for Human GlyT1c (Homo sapiens): what IC50 does the record show for Cc1cc(NCc2ccc(Cl)c(Cl)c2)c2cccc(OCCN3CCOCC3)c2n1 [Example 48, dihydrochloride] ?
≤ 0.1 µM

Item: COc1cccc2c(N[C@@H](c3ccccc3)[C@@H]3CCCCN3)cc(C)nc12
≤ 1 µM

Item: Cc1cc(NCc2ccc(Cl)c(Cl)c2)c2cccc(NS(C)(=O)=O)c2n1
≤ 10 µM

###

We begin with a simple list: items and their reported IC50.
Biological target: Human GlyT1c (Homo sapiens)
Sequence (P48067 1-706): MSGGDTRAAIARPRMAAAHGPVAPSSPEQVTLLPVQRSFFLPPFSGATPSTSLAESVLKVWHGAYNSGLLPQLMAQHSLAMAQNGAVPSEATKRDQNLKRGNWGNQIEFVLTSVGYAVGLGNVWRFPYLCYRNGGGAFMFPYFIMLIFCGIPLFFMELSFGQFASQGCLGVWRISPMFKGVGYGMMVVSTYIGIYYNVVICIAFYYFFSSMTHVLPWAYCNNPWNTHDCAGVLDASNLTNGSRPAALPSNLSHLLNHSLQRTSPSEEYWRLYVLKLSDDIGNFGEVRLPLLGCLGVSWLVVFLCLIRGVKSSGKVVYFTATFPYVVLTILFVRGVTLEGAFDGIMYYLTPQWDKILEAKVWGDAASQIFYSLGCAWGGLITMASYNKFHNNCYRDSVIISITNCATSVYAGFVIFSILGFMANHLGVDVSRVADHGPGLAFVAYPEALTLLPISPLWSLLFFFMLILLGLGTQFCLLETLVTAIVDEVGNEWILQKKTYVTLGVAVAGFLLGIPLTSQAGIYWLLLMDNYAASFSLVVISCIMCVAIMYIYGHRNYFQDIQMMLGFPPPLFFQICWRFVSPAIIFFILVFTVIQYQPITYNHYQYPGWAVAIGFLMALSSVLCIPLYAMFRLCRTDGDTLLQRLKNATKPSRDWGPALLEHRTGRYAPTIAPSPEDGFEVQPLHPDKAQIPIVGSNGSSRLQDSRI
Assay: Glycine uptake in recombinant hGlyT1 expressing cells
Settings: hGlyT1c_5_CHO cells; [3H]-glycine uptake, 60-120 min
Protocol: 1. Glycine Uptake in Recombinant hGlyT1 Expressing Cells: Human GlyT1c expressing recombinant hGlyT1c—5_CHO cells were plated at 20,000 cells per well in 96 well Cytostar-T scintillation microplates (Amersham Biosciences) and cultured to sub-confluency for 24 h. […] The plates were placed in a Wallac Microbeta (PerkinElmer) and continuously counted by solid phase scintillation spectrometry during up to 3 hours. Nonspecific uptake was determined in the presence of 10 μM Org24598. […]

1) Cc1cc(NCc2ccc(Cl)c(Cl)c2)c2ccccc2n1 ... ≤ 1 µM

Report IC50 for Cc1cc(NCc2ccc(Cl)c(Cl)c2)c2cccc(OCCNS(=O)(=O)c3cccnc3)c2n1 please.
≤ 0.1 µM

Item: C=CCN1CCCC[C@H]1[C@@H](Nc1cc(C)nc2ccccc12)c1ccccc1
≤ 100 µM

Item: C=CCN1CCCC[C@H]1[C@@H](Nc1cc(C)nc2c(OCCN)cccc12)c1ccccc1
≤ 100 µM

Item: Cc1cc(NCc2ccc(Cl)c(Cl)c2)c2cccc(S(C)(=O)=O)c2n1
≤ 10 µM

Item: COc1cccc2c(NC(CN3CCCCC3)c3ccc(Cl)cc3)cc(C)nc12 (stereo not drawn)
≤ 10 µM

Item: Cc1cc(NCc2ccc(Cl)c(Cl)c2)c2cccc(NC(=O)c3ccccc3)c2n1
≤ 100 µM

Item: COc1cccc2c(NC(c3ccccc3)c3ccc(Cl)cc3)cc(C)nc12 (stereo not drawn)
≤ 10 µM

Item: C=CCN1CCCC[C@H]1[C@@H](Nc1cc(C)nc2c(OCCNC(=O)OC(C)(C)C)cccc12)c1ccccc1
≤ 10 µM

Item: C=CCN1CCCC[C@H]1[C@@H](Nc1cc(C)nc2c(OCCNS(C)(=O)=O)cccc12)c1ccccc1
≤ 10 µM

Item: Cc1cc(NCc2cccc(Cl)c2Cl)c2ccccc2n1
≤ 10 µM

Item: Cc1cc(NCc2ccc(Cl)c(Cl)c2)c2cccc(N(S(C)(=O)=O)S(C)(=O)=O)c2n1
≤ 100 µM
